test: In vitro Caco-2 assay for cell permeability; type: in vitro ADME; details: human, Caco-2, pH 7.4, 10 uM, 2 hour incubation; read-out: Permeability Basolateral to Apical Papp(B → A) Mean
Below, each entry is listed with its recorded Papp B→A at 2 h, 10 uM.

{"columns": ["Compound", "Unit annotation", "Papp B→A at 2 h, 10 uM"],
 "data": [
  ["CO[C@H]1C[C@H](C)Cc2cc(cc(OP(=O)(O)O)c2)NC(=O)/C(C)=C/CC[C@H](C)[C@@H](OC(N)=O)/C(C)=C/[C@H](C)[C@H]1O [Compound 20]", "×10⁻⁶ cm/s", 0.35],
  ["CO[C@H]1C[C@H](C)Cc2cc(O)cc(c2)NC(=O)/C(C)=C/CC[C@H](C)[C@@H](OC(N)=O)/C(C)=C/[C@H](C)[C@H]1O [Compound 17]", "×10⁻⁶ cm/s", 2.95]
]}
